Record form. Attribute: IC50. Fill in for each entry.
biological target: HLA-B*5101 (human); assay: inhibition of 125I probe peptide, purified HLA

What IC50 value was documented for this binder, FPGLSAGI [CEA.680.F1I8] ?
9 nM

Cool, now FPVSPRLQL [CEA.363.F1]
82 nM

Cool, now FPSAPPHRI [CEA.3.F1I9]
15 nM

Cool, now FPWQRLLL [CEA.13.F1, 8 AA]
229 nM

Cool, now FPQHLFGI [CEA.58.F1, 8 AA]
212 nM

Cool, now FPQHLFGYSI [CEA.58.F1I10]
204 nM

Cool, now FPAYSGREI [CEA.92.F1]
183 nM

Cool, now FPDAPTISPL [CEA.236.F1]
290 nM

meta.source: patent US20040146519A1
